test system: SK-MEL-5; test: NCI one-dose screen; format: cell-based; conditions: Homo sapiens; SK-MEL-5, 10 µM; read-out: Growth Percent
PROPERTY MEASURED: activity at 10 µM (%)

[
  {
    "CHEMICAL STRING": "O=C(/C=C/c1ccc(Cl)cc1)c1ccc(-n2cc(CN3CCN(c4cc5c(cc4F)c(=O)c(C(=O)O)cn5C4CC4)CC3)nn2)cc1",
    "PROPERTY MEASURED": "activity at 10 µM",
    "VALUE OBSERVED": 77.6
  },
  {
    "CHEMICAL STRING": "O=C(/C=C/c1ccc(F)cc1)c1ccc(-n2cc(CN3CCN(c4cc5c(cc4F)c(=O)c(C(=O)O)cn5C4CC4)CC3)nn2)cc1",
    "PROPERTY MEASURED": "activity at 10 µM",
    "VALUE OBSERVED": 79
  },
  {
    "CHEMICAL STRING": "COc1ccc(/C=C/C(=O)c2ccc(-n3cc(CN4CCN(c5cc6c(cc5F)c(=O)c(C(=O)O)cn6C5CC5)CC4)nn3)cc2)cc1",
    "PROPERTY MEASURED": "activity at 10 µM",
    "VALUE OBSERVED": 81.6
  }
]

====

system: K-562; assay: NCI one-dose screen; assay type: cell-based; conditions: Homo sapiens, K562; K-562, 10 µM; read-out: Growth Percent

[
  {
    "MOLECULE": "Cc1ccc(/C=C/C(=O)c2ccc(-n3cc(CN4CCN(c5cc6c(cc5F)c(=O)c(C(=O)O)cn6C5CC5)CC4)nn3)cc2)cc1 [Compound 4f]",
    "activity at 10 µM / %": 51.5
  },
  {
    "MOLECULE": "O=C(/C=C/c1ccc(F)cc1)c1ccc(-n2cc(CN3CCN(c4cc5c(cc4F)c(=O)c(C(=O)O)cn5C4CC4)CC3)nn2)cc1 [Compound 4e]",
    "activity at 10 µM / %": 21.9
  },
  {
    "MOLECULE": "COc1cc(/C=C/C(=O)c2ccc(-n3cc(CN4CCN(c5cc6c(cc5F)c(=O)c(C(=O)O)cn6C5CC5)CC4)nn3)cc2)cc(OC)c1OC [Compound 4j]",
    "activity at 10 µM / %": 7.81
  },
  {
    "MOLECULE": "O=C(/C=C/c1ccc(Br)cc1)c1ccc(-n2cc(CN3CCN(c4cc5c(cc4F)c(=O)c(C(=O)O)cn5C4CC4)CC3)nn2)cc1 [Compound 4d]",
    "activity at 10 µM / %": 60.7
  },
  {
    "MOLECULE": "COc1ccc(/C=C/C(=O)c2ccc(-n3cc(CN4CCN(c5cc6c(cc5F)c(=O)c(C(=O)O)cn6C5CC5)CC4)nn3)cc2)cc1 [Compound 4g]",
    "activity at 10 µM / %": 67.5
  },
  {
    "MOLECULE": "O=C(/C=C/c1ccc(Cl)cc1)c1ccc(-n2cc(CN3CCN(c4cc5c(cc4F)c(=O)c(C(=O)O)cn5C4CC4)CC3)nn2)cc1 [Compound 4c]",
    "activity at 10 µM / %": 56
  }
]

====

melting point values by entry

[
  {
    "CHEMICAL STRING": "CN(C)c1ccc(/C=C/C(=O)c2ccc(-n3cc(CN4CCN(c5cc6c(cc5F)c(=O)c(C(=O)O)cn6C5CC5)CC4)nn3)cc2)cc1",
    "melting point": "177 to 179 °C"
  },
  {
    "CHEMICAL STRING": "O=C(/C=C/c1ccc(Cl)cc1)c1ccc(-n2cc(CN3CCN(c4cc5c(cc4F)c(=O)c(C(=O)O)cn5C4CC4)CC3)nn2)cc1",
    "melting point": "257 to 259 °C"
  },
  {
    "CHEMICAL STRING": "COc1ccc(/C=C/C(=O)c2ccc(-n3cc(CN4CCN(c5cc6c(cc5F)c(=O)c(C(=O)O)cn6C5CC5)CC4)nn3)cc2)cc1",
    "melting point": "254 to 257 °C"
  },
  {
    "CHEMICAL STRING": "O=C(/C=C/c1ccc(Br)cc1)c1ccc(-n2cc(CN3CCN(c4cc5c(cc4F)c(=O)c(C(=O)O)cn5C4CC4)CC3)nn2)cc1",
    "melting point": "247 to 249 °C"
  },
  {
    "CHEMICAL STRING": "Cc1ccc(/C=C/C(=O)c2ccc(-n3cc(CN4CCN(c5cc6c(cc5F)c(=O)c(C(=O)O)cn6C5CC5)CC4)nn3)cc2)cc1",
    "melting point": "259 to 261 °C"
  }
]

====

System: HT29
Assay: NCI one-dose screen
Format: cell-based
Details: Homo sapiens, HT-29; HT29, 10 µM; read-out: Growth Percent
Method: For screening of anticancer properties, all the developed compounds were chosen by the (NCI) for in-vitro antitumor evaluation. The assay was carried out using 59 human cancer cell lines obtained from nine tumour subpanels (breast, ovarian, melanoma, leukaemia, renal, CNS, lung, prostate, and colon cancer cell lines). Compounds were assessed at a 10 µM concentration. […]

[
  {
    "CHEMICAL STRING": "O=C(/C=C/c1ccccc1)c1ccc(-n2cc(CN3CCN(c4cc5c(cc4F)c(=O)c(C(=O)O)cn5C4CC4)CC3)nn2)cc1",
    "RESULT UNIT": "%",
    "activity at 10 µM": 90.8
  },
  {
    "CHEMICAL STRING": "COc1ccc(/C=C/C(=O)c2ccc(-n3cc(CN4CCN(c5cc6c(cc5F)c(=O)c(C(=O)O)cn6C5CC5)CC4)nn3)cc2)cc1OC",
    "RESULT UNIT": "%",
    "activity at 10 µM": 29.6
  },
  {
    "CHEMICAL STRING": "Cc1ccc(/C=C/C(=O)c2ccc(-n3cc(CN4CCN(c5cc6c(cc5F)c(=O)c(C(=O)O)cn6C5CC5)CC4)nn3)cc2)cc1",
    "RESULT UNIT": "%",
    "activity at 10 µM": 91.7
  },
  {
    "CHEMICAL STRING": "O=C(/C=C/c1cccc(Cl)c1)c1ccc(-n2cc(CN3CCN(c4cc5c(cc4F)c(=O)c(C(=O)O)cn5C4CC4)CC3)nn2)cc1",
    "RESULT UNIT": "%",
    "activity at 10 µM": 53.3
  },
  {
    "CHEMICAL STRING": "CN(C)c1ccc(/C=C/C(=O)c2ccc(-n3cc(CN4CCN(c5cc6c(cc5F)c(=O)c(C(=O)O)cn6C5CC5)CC4)nn3)cc2)cc1",
    "RESULT UNIT": "%",
    "activity at 10 µM": 98.9
  },
  {
    "CHEMICAL STRING": "O=C(/C=C/c1ccc(Cl)cc1)c1ccc(-n2cc(CN3CCN(c4cc5c(cc4F)c(=O)c(C(=O)O)cn5C4CC4)CC3)nn2)cc1",
    "RESULT UNIT": "%",
    "activity at 10 µM": 79.2
  },
  {
    "CHEMICAL STRING": "COc1ccc(/C=C/C(=O)c2ccc(-n3cc(CN4CCN(c5cc6c(cc5F)c(=O)c(C(=O)O)cn6C5CC5)CC4)nn3)cc2)cc1",
    "RESULT UNIT": "%",
    "activity at 10 µM": 78.2
  },
  {
    "CHEMICAL STRING": "O=C(/C=C/c1ccc(F)cc1)c1ccc(-n2cc(CN3CCN(c4cc5c(cc4F)c(=O)c(C(=O)O)cn5C4CC4)CC3)nn2)cc1",
    "RESULT UNIT": "%",
    "activity at 10 µM": 28
  },
  {
    "CHEMICAL STRING": "O=C(/C=C/c1ccc(Br)cc1)c1ccc(-n2cc(CN3CCN(c4cc5c(cc4F)c(=O)c(C(=O)O)cn5C4CC4)CC3)nn2)cc1",
    "RESULT UNIT": "%",
    "activity at 10 µM": 99.2
  },
  {
    "CHEMICAL STRING": "COc1cc(/C=C/C(=O)c2ccc(-n3cc(CN4CCN(c5cc6c(cc5F)c(=O)c(C(=O)O)cn6C5CC5)CC4)nn3)cc2)cc(OC)c1OC",
    "RESULT UNIT": "%",
    "activity at 10 µM": 4.76
  }
]

====

Below, each of the compounds is paired with its reported activity at 10 µM value.
test system: SNB-75; test: NCI one-dose screen; assay type: cell-based; conditions: Homo sapiens; SNB-75, 10 µM; read-out: Growth Percent

[
  {
    "COMPOUND": "COc1cc(/C=C/C(=O)c2ccc(-n3cc(CN4CCN(c5cc6c(cc5F)c(=O)c(C(=O)O)cn6C5CC5)CC4)nn3)cc2)cc(OC)c1OC [Compound 4j]",
    "activity at 10 µM (%)": 65.5
  },
  {
    "COMPOUND": "O=C(/C=C/c1cccc(Cl)c1)c1ccc(-n2cc(CN3CCN(c4cc5c(cc4F)c(=O)c(C(=O)O)cn5C4CC4)CC3)nn2)cc1 [Compound 4b]",
    "activity at 10 µM (%)": 89.2
  },
  {
    "COMPOUND": "COc1ccc(/C=C/C(=O)c2ccc(-n3cc(CN4CCN(c5cc6c(cc5F)c(=O)c(C(=O)O)cn6C5CC5)CC4)nn3)cc2)cc1OC [Compound 4i]",
    "activity at 10 µM (%)": 58.3
  },
  {
    "COMPOUND": "O=C(/C=C/c1ccccc1)c1ccc(-n2cc(CN3CCN(c4cc5c(cc4F)c(=O)c(C(=O)O)cn5C4CC4)CC3)nn2)cc1 [Compound 4a]",
    "activity at 10 µM (%)": 92.7
  },
  {
    "COMPOUND": "O=C(/C=C/c1ccc(F)cc1)c1ccc(-n2cc(CN3CCN(c4cc5c(cc4F)c(=O)c(C(=O)O)cn5C4CC4)CC3)nn2)cc1 [Compound 4e]",
    "activity at 10 µM (%)": 68.1
  },
  {
    "COMPOUND": "O=C(/C=C/c1ccc(Br)cc1)c1ccc(-n2cc(CN3CCN(c4cc5c(cc4F)c(=O)c(C(=O)O)cn5C4CC4)CC3)nn2)cc1 [Compound 4d]",
    "activity at 10 µM (%)": 85.7
  }
]

The measurements presented in this section are drawn from paper PMC9116245.
